Tested on: Prostatic carcinoma cell
Test Protocol: Cytotoxicity against human Prostate carcinoma cells incubated for 48 hrs by SRB assay
Type: functional
Provide the recorded LC50 for the entries that follow.
Give bare numbers, in µM.

// worked examples, LC50 included
Input Smiles | Units Label | LC50
CC(C)(C)c1cc(/C=C2/C(=O)Nc3cccc(F)c32)c(O)c(/C=C2/C(=O)Nc3cccc(F)c32)c1 | µM | 36.3
COc1ccc2c(c1)/C(=C\c1cc(C(C)(C)C)cc(/C=C3/C(=O)N(C)c4ccc(OC)cc43)c1O)C(=O)N2C | µM | 67.6
O=C1Nc2cccc(F)c2/C1=C\c1cccc(/C=C2/C(=O)Nc3cccc(F)c32)c1 | µM | 18.6
COc1cc2c(/C=C3/C(=O)N(C)c4cc5c(cc43)/C(=C\c3c(Cl)[nH]c4cc(C)c(OC)cc34)C(=O)N5C)c(Cl)[nH]c2cc1C | µM | 20.4

Quick batch: LC50 for everything below.
1. Cc1cc2c(cc1O)/C(=C\c1cc(C(C)(C)C)cc(C=O)c1O)C(=O)N2
2. O=C1Nc2cc(Cl)ccc2/C1=C\c1cccc(/C=C2/C(=O)Nc3cc(Cl)ccc32)c1
3. COc1ccc2c(c1)/C(=C\c1ccc3ccc4ccc(/C=C5/C(=O)N(C)c6ccc(OC)cc65)nc4c3n1)C(=O)N2C

Reply:
1: 57.5; 2: 28.2; 3: 56.2

Would you mind listing LC50 for each of the following compounds?
1. COc1cc2c(c(OC)c1OC)C(=Cc1cc(C(C)(C)C)cc(/C=C3\C(=O)Nc4cc(OC)c(OC)c(OC)c43)c1O)C(=O)N2
2. CC(C)(C)c1cc(/C=C2/C(=O)Nc3cc(Cl)ccc32)c(O)c(/C=C2/C(=O)Nc3cc(Cl)ccc32)c1
3. COc1ccc2[nH]c(Cl)c(/C=C3/C(=O)N(C)c4cc5c(cc43)/C(=C\c3c(Cl)[nH]c4ccc(OC)cc34)C(=O)N5C)c2c1
4. CC(C)(C)c1cc(/C=C2/C(=O)Nc3ccc(F)cc32)c(O)c(/C=C2/C(=O)Nc3ccc(F)cc32)c1

Reply:
1. 12.6
2. 38
3. 7.94
4. 4.74

Cited source for all entries: ChEMBL document CHEMBL5500359
